// data source = patent US20260365670A1

System: Ba/F3 cells expressing EGFR mutations
Test: Cell proliferation assay, Ba/F3 cells expressing EGFR mutations (CellTiter-Glo, 72 hours)
Assay type: cell-based
Condition Details: BaF3 cells, EGFR DEL19-T790-C797S, CellTiter-Glo, read-out: DEL19-T790-C797S/BaF3 GI50
We label by threshold. Values of GI50 strictly beneath 200 nM are 1. Values of 200 nM and up are -1.

**Query** Please state whether GI50 is below 200 nM for CN1CC2CN(c3ccc4nc5n(c4c3)C34CCC(CN(CCOc6c(cnn6C)-c6cc(cn(C)c6=O)C(=O)N5)C3)C4)CC2C1 (single isomer, unassigned) [Example A68A]
**Result** -1

**Query** Continue with CN1CCN(C2CCN(c3ccc4nc5n(c4c3)C34CCC(CN(CCOc6c(cnn6C)-c6cc(cn(C)c6=O)C(=O)N5)C3)C4)C2)CC1 (single isomer, unassigned) [Example A80B]
**Result** 1

**Query** Continue with CN1CCN(c2ccc3nc4n(c3c2)C23CCC(CN(CCOc5c(cnn5C)-c5cc(cn(C)c5=O)C(=O)N4)C2)C3)CC1 (single isomer, unassigned) [Example A63B]
**Result** 1

**Query** Continue with CN1CCC12CCN(c1ccc3nc4n(c3c1)C13CCC(CN(CCOc5c(cnn5C)-c5cc(cn(C)c5=O)C(=O)N4)C1)C3)CC2 (single isomer, unassigned) [Example A67B]
**Result** 1

Continuing:
**Query** Please state whether GI50 is below 200 nM for Cn1ncc2c1OCCN1CC3CCC(C3)(C1)n1c(nc3ccc(N4CCOCC4)cc31)NC(=O)c1cc-2c(=O)n(C)c1 (single isomer, unassigned) [Example A62A]
**Result** -1

**Query** Continue with Cn1ncc2c1OCCN1CC3CCC(C3)(C1)n1c(nc3ccc(N4CCC(N5CC(F)C5)CC4)cc31)NC(=O)c1cc-2c(=O)n(C)c1 (single isomer, unassigned) [Example A87A]
**Result** -1

**Query** Continue with Cn1ncc2c1OCCN1CC3CCC(C3)(C1)n1c(nc3ccc(N4CCC(N5CC(F)C5)C4)cc31)NC(=O)c1cc-2c(=O)n(C)c1 (single isomer, unassigned) [Example A94A1]
**Result** -1

**Query** Continue with CN1CCCC12CN(c1ccc3nc4n(c3c1)C13CCC(CN(CCOc5c(cnn5C)-c5cc(cn(C)c5=O)C(=O)N4)C1)C3)C2 (single isomer, unassigned) [Example A76A]
**Result** -1

----------
Assayed System: EGFR[T790M/C797S/d746-750] (Homo sapiens, UniProt P00533, C797S/DEL746-750/T790M)
Construct: purchased Carna Bio
Sequence (P00533 with tags, fused parts or gaps DEL746-750/T790M/C797S limits assumed): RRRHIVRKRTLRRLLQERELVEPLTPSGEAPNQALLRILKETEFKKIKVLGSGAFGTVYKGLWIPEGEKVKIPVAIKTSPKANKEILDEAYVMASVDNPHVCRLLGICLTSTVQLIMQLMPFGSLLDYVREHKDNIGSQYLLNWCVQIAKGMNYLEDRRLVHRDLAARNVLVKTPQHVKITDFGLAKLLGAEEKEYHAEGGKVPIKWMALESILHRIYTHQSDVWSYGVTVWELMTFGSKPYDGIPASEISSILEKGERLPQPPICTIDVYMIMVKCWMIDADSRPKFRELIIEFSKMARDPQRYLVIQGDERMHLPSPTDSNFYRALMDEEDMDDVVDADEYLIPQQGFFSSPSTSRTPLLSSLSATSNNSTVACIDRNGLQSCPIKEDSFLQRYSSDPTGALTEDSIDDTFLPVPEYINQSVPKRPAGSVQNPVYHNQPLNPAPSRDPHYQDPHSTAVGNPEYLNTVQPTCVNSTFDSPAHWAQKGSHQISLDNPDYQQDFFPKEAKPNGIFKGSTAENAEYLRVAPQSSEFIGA
Test: Inhibition of EGFR[T790M/C797S/d746-750] biochemical enzymatic activity (HTRF)
Condition Details: EGFR T790M-C797S-Del19, 1 mM ATP, 1 h, room temperature, read-out: IC50 (nM) @T790M - C797S - Del19
Quantity Measured: IC50
Quick note: unit goes after the number.

Some solved cases for reference:
**Query** Item Cn1ncc2c1OCCN1CC3CCC(CC3)(C1)n1c(nc3cc(F)ccc31)NC(=O)c1cc-2c(=O)n(C)c1 [Example A116] has what recorded IC50?
**Result** 168 nM

**Query** Continue with C[C@@H]1CCCOc2c(cnn2C)-c2cc(cn(C)c2=O)C(=O)Nc2nc3ccc4c(c3n2C1)CCNC4 [Example A102]
**Result** 3.4 nM

Continuing:
**Query** Item C[C@@H]1CCCOc2c(cnn2C)-c2cc(cn(C)c2=O)C(=O)Nc2nc3ccc(N4CCN(C)CC4)c(Cl)c3n2C1 [Example A101] has what recorded IC50?
**Result** 1.8 nM

**Query** Continue with Cn1ncc2c1OCCN1CC3CCC(C3)(C1)n1c(nc3ccc(N4CCOCC4)cc31)NC(=O)c1cc-2c(=O)n(C)c1 (stereo not shown) [Example A62]
**Result** 6.3 nM
